# reported Decrease in systolic blood pressure (mmHg) time after administration (hour) 0.5; entries follow
test system: male spontaneously hypertensive rats; experiment: Decrease in systolic blood pressure in spontaneously hypertensive rats after intravenous bolus injection, indirect (tail-cuff) method; assay type: in vivo, rat; conditions: dose 10 mg/kg i.v. bolus, 0.5 hour after administration
measure: Decrease in systolic blood pressure (mmHg) time after administration (hour) 0.5

molecule	number
Cl.N#Cc1ccc(CN2CCC(=C3c4ccccc4C=Cc4ccccc43)CC2)cc1 [Example 160]	−3
CC(=O)Nc1ccccc1CCCN1CCC(=C2c3ccccc3C=Cc3ccccc32)CC1.Cl.Cl [Example 252]	−23
CCOC(=O)C(CCC1CCCCC1)CN1CCC(=C2c3ccccc3C=Cc3ccccc32)CC1.Cl (stereo not drawn) [Example 262]	−16
CCCCC(O)(CCCN1CCC(=C2c3ccccc3C=Cc3ccccc32)CC1)c1ccc(OC)c(OC)c1.Cl (stereo not drawn) [Example 207]	−98
Cl.[O-][S+](CCCN1CCC(=C2c3ccccc3C=Cc3ccccc32)CC1)c1ccccc1 (stereo not drawn) [Example 239]	−68
C1=Cc2ccccc2C(=C2CCN(Cc3cc4ccccc4[nH]3)CC2)c2ccccc21.Cl [Example 385]	−123

Just for reference, patent USRE38257E1 is where these values come from.
